measured-on: BRAF V600E (Homo sapiens, UniProt P15056, V600E)
Construct: endogenous C-terminal HiBiT fusion tag on BRAF V600E allele; endogenous in cells; host or cells: A375 clone 1F10 (CRISPR-Cas9 knock-in of the HiBiT tag; parental A375 from ATCC)
Sequence (P15056 whole entry V600E, the tested form may be a part): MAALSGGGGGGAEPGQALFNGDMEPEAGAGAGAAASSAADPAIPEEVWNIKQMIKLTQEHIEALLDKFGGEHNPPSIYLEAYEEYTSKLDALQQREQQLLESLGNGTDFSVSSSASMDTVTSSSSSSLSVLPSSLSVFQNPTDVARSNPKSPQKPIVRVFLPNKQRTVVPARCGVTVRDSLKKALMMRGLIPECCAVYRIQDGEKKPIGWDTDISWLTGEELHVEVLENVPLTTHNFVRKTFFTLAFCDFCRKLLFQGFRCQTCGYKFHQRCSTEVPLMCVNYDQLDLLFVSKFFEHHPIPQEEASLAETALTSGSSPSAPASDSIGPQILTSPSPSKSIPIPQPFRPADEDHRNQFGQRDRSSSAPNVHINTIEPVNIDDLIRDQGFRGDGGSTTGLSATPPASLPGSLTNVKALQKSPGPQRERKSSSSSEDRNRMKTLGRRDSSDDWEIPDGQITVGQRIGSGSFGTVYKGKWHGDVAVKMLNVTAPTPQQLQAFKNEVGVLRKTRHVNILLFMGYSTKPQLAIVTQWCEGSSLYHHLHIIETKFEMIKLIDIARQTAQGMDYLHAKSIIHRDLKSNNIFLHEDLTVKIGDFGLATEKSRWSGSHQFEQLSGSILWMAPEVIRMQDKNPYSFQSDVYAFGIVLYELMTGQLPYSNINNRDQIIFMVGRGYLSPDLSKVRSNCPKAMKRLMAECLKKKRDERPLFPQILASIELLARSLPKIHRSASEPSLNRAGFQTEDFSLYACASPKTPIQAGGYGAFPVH
assay-info: BRAF HiBiT degradation assay, C-terminal HiBiT-tagged BRAF V600E A375 cells (clone 1F10), Nano-Glo HiBiT Lytic assay
Type: cell-based
applied-conditions: A-375; A375 (BRAF V600E); percentage protein degraded at maximal compound effect relative to DMSO
readout-label: Dmax

Worked examples follow.
CCCS(=O)(=O)Nc1cccc(-c2nc(C(C)(C)C)sc2-c2ccnc(NC3CC4(CCN(C(=O)CN5CCN(c6ccc7c(c6)C(=O)N(C6CCC(=O)NC6=O)C7=O)CC5)CC4)C3)n2)c1F (racemic): 30 to 70%
CCCS(=O)(=O)Nc1cccc(-c2cn(C3CCN(C(=O)C4CCN(CC5CCN(c6ccc(C7CCC(=O)NC7=O)cn6)CC5)CC4)CC3)nc2-c2ccncc2)c1F (racemic): > 70%
CCCS(=O)(=O)Nc1cccc(-c2nc(C(C)(C)C)sc2-c2ccnc(Nc3ccc(N4CCN(CC5CCN(c6ccc([C@H]7CCC(=O)NC7=O)cc6)CC5)CC4)cc3)n2)c1F: > 70%
CCCS(=O)(=O)Nc1cccc(-c2nc(C(C)(C)C)sc2-c2ccnc(N[C@H]3CC[C@H](CN4CCN(CC5CCN(c6ccc([C@@H]7CCC(=O)NC7=O)cc6)CC5)CC4)CC3)n2)c1F: 30 to 70%

Consider now this further compound.
Task: Reported Dmax for CCCS(=O)(=O)Nc1cccc(-c2nc(C(C)(C)C)sc2-c2ccnc(Nc3ccc(N4CCN(C(=O)C5CCN(c6ccc(C7CCC(=O)NC7=O)cc6)CC5)CC4)cc3)n2)c1F (racemic) : what is it?
Result: > 70%

----------
measured-on: BRAF D594G (Homo sapiens, UniProt P15056, D594G)
Construct: Horizon Discovery (HCT-116 BRAF−/− cells); host or cells: HCT-116 BRAF−/− cells, clone 63, lentiviral transduction
Sequence (P15056 whole entry D594G): as the sequence (P15056 whole entry V600E, the tested form may be a part) above, with D594G, E600V counted along it
assay-info: BRAF HiBiT degradation assay, C-terminal HiBiT-tagged BRAF D594G overexpressed in HCT-116 BRAF−/− cells (clone 63), Nano-Glo HiBiT Lytic assay
Format: cell-based
applied-conditions: BRAF D594G (Class 3), HCT-116 BRAF−/− cells; DC50 at 50% degradation
Experimental: An A375 cell line expressing a homozygous V600E mutation was purchased from ATCC (Manassas, VA, USA). […] HiBiT signal was measured by a Nano-Glo HiBiT Lytic assay (Promega cat. no. N3050). […] Luminesce units (LU) were read on an EnVision plate reader 2105 (Perkin Elmer). Percent protein remaining and viability remaining per sample were calculated as follows: […]
readout-label: DC50

C[C@@H]1CN(c2ccc(-n3cc(-c4cc(Cl)cc(NS(=O)(=O)N5CCCC5)c4F)c(-c4ccncc4)n3)c(F)c2)C[C@@H](C)N1CC1CCN(c2ccc(C3CCC(=O)NC3=O)cn2)CC1 (mixture of isomers) [Compound 382]: < 10 nM

Task: Requested read-out: DC50. Entry: O=C1CC[C@H](c2ccc(N3CCC(CN4CCN(c5ccc(-n6cc(-c7cc(Cl)cc(NS(=O)(=O)N8CC[C@@H](F)C8)c7F)c(-c7ccncc7)n6)c(F)c5)CC4)CC3)nc2)C(=O)N1 [Compound 334]
Result: < 10 nM

Task: Entry O=C1CC[C@@H](c2ccc(N3CCC(CN4CCN(c5ccc(-n6cc(-c7cc(Cl)cc(NS(=O)(=O)N8CCCC8)c7F)c(-c7ccncc7)n6)cc5)CC4)CC3)cc2F)C(=O)N1 [Compound 384] has what DC50?
Result: > 500 nM

Task: DC50 for O=C1CC[C@H](c2ccc(N3CCC(CN4CCN(c5ccc(-n6cc(-c7cc(Cl)cc(NS(=O)(=O)C8CCCC8)c7F)c(-c7ccncc7)n6)cc5)CC4)CC3)cc2)C(=O)N1 [Compound 374] ?
Result: 10 to 50 nM

Task: Bench note: what DC50 did C[C@@H]1CN(c2ccc(-n3cc(-c4cc(Cl)cc(NS(=O)(=O)N5CCCC5)c4F)c(-c4ccncc4)n3)cc2)CCN1CC1CCN(c2ccc([C@H]3CCC(=O)NC3=O)cc2)CC1 [Compound 316] show?
Result: < 10 nM

----------
Measured DC50, listed per entry for reference.
measured-on: BRAF V600E (Homo sapiens, UniProt P15056, V600E)
Construct: endogenous C-terminal HiBiT fusion tag on BRAF V600E allele; endogenous in cells; host or cells: A375 clone 1F10 (CRISPR-Cas9 knock-in of the HiBiT tag; parental A375 from ATCC)
assay-info: BRAF HiBiT degradation assay, C-terminal HiBiT-tagged BRAF V600E A375 cells (clone 1F10), Nano-Glo HiBiT Lytic assay
Assay type: cell-based
applied-conditions: A375 (BRAF V600E, Class 1); DC50 at 50% degradation

O=C1CC[C@H](c2ccc(N3CCC(CN4CCN(c5cnc(-n6cc(-c7cc(Cl)cc(NS(=O)(=O)N8CCCC8)c7F)c(-c7ccncc7)n6)nc5)CC4)CC3)cc2)C(=O)N1 [Compound 360]: < 0.01 µM
O=C1CC[C@H](c2ccc(N3CCC(CN4CCN(c5ccc(-n6cc(-c7cc(Cl)cc(NS(=O)(=O)N8CC[C@@H](F)C8)c7F)c(-c7ccncc7)n6)c(F)c5)CC4)CC3)cc2)C(=O)N1 [Compound 336]: < 0.01 µM
O=C1CCC(c2ccc(N3CCC(CN4CCN(c5ccc(-n6cc(-c7cc(Cl)cc(NS(=O)(=O)N8CCCC8)c7F)c(-c7ccncc7)n6)nc5)CC4)CC3)nc2)C(=O)N1 (racemic) [Compound 288]: < 0.01 µM

Task: Quick check: DC50 of O=C1CC[C@H](c2ccc(N3CCC(CN4CCN(c5cc(F)c(-n6cc(-c7cc(Cl)cc(NS(=O)(=O)N8CCCC8)c7F)c(-c7ccncc7)n6)cc5F)CC4)CC3)cc2)C(=O)N1 [Compound 353] ?
Result: < 0.01 µM

Task: Find the recorded DC50 belonging to O=C1CCN(c2ccc(N3CCC(CN4CCN(c5ccc(-n6cc(-c7cc(Cl)cc(NS(=O)(=O)N8CC(F)C8)c7F)c(-c7ccncc7)n6)cc5)CC4)CC3)nc2)C(=O)N1 [Compound 368] and report it.
Result: < 0.01 µM

----------
measured-on: BRAF G469A (Homo sapiens, UniProt P15056, G469A)
Construct: Horizon Discovery (HCT-116 BRAF−/− cells); host or cells: HCT-116 BRAF−/− cells, clone 34, lentiviral transduction
Sequence (P15056 whole entry G469A): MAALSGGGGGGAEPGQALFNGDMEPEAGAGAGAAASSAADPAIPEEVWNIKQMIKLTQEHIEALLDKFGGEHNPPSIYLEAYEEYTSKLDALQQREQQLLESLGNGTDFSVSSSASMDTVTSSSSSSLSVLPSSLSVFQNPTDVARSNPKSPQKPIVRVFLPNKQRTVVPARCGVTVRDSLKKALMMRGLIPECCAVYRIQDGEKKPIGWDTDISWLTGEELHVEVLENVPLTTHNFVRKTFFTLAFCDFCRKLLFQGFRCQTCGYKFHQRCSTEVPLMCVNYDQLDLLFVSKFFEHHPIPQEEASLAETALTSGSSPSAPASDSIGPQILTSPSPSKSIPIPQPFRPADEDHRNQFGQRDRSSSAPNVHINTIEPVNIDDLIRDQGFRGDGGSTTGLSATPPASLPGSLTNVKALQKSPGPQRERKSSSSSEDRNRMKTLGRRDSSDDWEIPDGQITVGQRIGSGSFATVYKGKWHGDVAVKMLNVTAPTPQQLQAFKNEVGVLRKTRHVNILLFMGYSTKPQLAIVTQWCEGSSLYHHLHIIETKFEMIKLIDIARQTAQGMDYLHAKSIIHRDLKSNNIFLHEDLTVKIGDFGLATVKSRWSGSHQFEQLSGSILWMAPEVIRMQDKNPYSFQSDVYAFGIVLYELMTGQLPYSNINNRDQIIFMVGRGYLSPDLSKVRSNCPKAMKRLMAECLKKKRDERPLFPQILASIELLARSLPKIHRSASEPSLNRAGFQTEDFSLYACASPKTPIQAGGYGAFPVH
assay-info: BRAF HiBiT degradation assay, C-terminal HiBiT-tagged BRAF G469A overexpressed in HCT-116 BRAF−/− cells (clone 34), Nano-Glo HiBiT Lytic assay
Assay type: cell-based
applied-conditions: HCT-116; Class 2; BRAF G469A; percentage protein degraded at maximal compound effect relative to DMSO
readout-label: Dmax

# count of solved cases: 10
CCCS(=O)(=O)Nc1cccc(-c2nc(C(C)(C)C)sc2-c2ccnc(Nc3cnn(C4CCN(CC5CCN(c6ccc7c(=O)n(C8CCC(=O)NC8=O)ccc7c6)CC5)CC4)c3)n2)c1F (racemic): < 30%
CCCS(=O)(=O)Nc1cccc(-c2nc(C(C)(C)C)sc2-c2ccnc(Nc3ccc(C4CCN(CC5CCN(c6cncc(C7CCC(=O)NC7=O)c6)CC5)CC4)cc3)n2)c1F (racemic): < 30%
CCCS(=O)(=O)Nc1cccc(-c2nc(C3CCN(CC4CCN(C[C@H]5CC[C@H](Oc6ccc(C7CCC(=O)NC7=O)cc6)CC5)CC4)CC3)sc2-c2ccnc(N)n2)c1F (mixture of isomers): < 30%
CCCS(=O)(=O)Nc1cccc(-c2nc(C(C)(C)C3CCN(C(=O)C4CN(C5CCN(c6ccc7c(c6)C(=O)N(C6CCC(=O)NC6=O)C7=O)CC5)C4)CC3)sc2-c2ccnc(N)n2)c1F (racemic): < 30%
CCCS(=O)(=O)Nc1cccc(-c2nc(C(C)(C)C)sc2-c2ccnc(N[C@H]3CC[C@@H](N4CCN(CC5CCN(c6ccc(C7CCC(=O)NC7=O)cn6)CC5)CC4)CC3)n2)c1F (mixture of isomers): 30 to 70%
CCCS(=O)(=O)Nc1cccc(-c2nc(C)sc2-c2ccnc(Nc3ccc(C4CCN(C(=O)CC5CCN(c6ccc(NC7CCC(=O)NC7=O)cc6)CC5)CC4)cc3)n2)c1F (racemic): < 30%
CCCS(=O)(=O)Nc1cccc(-c2nc(C(C)(C)C)sc2-c2ccnc(Nc3cccc(OC4CCN(C(=O)C5CCN(c6cc(C7CCC(=O)NC7=O)ccn6)CC5)CC4)c3)n2)c1F (racemic): < 30%
CCCS(=O)(=O)Nc1cccc(-c2nc(C3CCN(C(=O)C4(C)CCN(C(=O)C5CCN(c6ccc(C7CCC(=O)NC7=O)cn6)CC5)CC4)CC3)sc2-c2ccnc(N)n2)c1F (racemic): 30 to 70%
CCCS(=O)(=O)Nc1cccc(-c2nc(-c3ccc(C4CCN(C(=O)CC5CCN(c6ccc(C7CCC(=O)NC7=O)cn6)CC5)CC4)cc3)sc2-c2ccnc(N)n2)c1F (racemic): 30 to 70%
CCCS(=O)(=O)Nc1cccc(-c2nc(C(C)(C)C)sc2-c2ccnc(Nc3ccc(N4CCN(C(=O)CN5CCc6cc(C7CCC(=O)NC7=O)ccc6C5)CC4)c(F)c3)n2)c1F (racemic): 30 to 70%

Alright, here's another compound for you.
Task: Give the reported Dmax for CCCS(=O)(=O)Nc1cccc(-c2nc(C(C)(C)C)sc2-c2ccnc(Nc3cccc(OC4CCN(CC[C@H]5CCN(c6ccc(C7CCC(=O)NC7=O)cn6)C5)CC4)c3)n2)c1F (mixture of isomers) (system: BRAF G469A (Homo sapiens, UniProt P15056, G469A)).
Result: < 30%
